# target-desc: Voltage-dependent N-type calcium channel subunit alpha-1B (Homo sapiens) (UniProt Q00975)
# Sequence (Q00975 whole entry, looked up): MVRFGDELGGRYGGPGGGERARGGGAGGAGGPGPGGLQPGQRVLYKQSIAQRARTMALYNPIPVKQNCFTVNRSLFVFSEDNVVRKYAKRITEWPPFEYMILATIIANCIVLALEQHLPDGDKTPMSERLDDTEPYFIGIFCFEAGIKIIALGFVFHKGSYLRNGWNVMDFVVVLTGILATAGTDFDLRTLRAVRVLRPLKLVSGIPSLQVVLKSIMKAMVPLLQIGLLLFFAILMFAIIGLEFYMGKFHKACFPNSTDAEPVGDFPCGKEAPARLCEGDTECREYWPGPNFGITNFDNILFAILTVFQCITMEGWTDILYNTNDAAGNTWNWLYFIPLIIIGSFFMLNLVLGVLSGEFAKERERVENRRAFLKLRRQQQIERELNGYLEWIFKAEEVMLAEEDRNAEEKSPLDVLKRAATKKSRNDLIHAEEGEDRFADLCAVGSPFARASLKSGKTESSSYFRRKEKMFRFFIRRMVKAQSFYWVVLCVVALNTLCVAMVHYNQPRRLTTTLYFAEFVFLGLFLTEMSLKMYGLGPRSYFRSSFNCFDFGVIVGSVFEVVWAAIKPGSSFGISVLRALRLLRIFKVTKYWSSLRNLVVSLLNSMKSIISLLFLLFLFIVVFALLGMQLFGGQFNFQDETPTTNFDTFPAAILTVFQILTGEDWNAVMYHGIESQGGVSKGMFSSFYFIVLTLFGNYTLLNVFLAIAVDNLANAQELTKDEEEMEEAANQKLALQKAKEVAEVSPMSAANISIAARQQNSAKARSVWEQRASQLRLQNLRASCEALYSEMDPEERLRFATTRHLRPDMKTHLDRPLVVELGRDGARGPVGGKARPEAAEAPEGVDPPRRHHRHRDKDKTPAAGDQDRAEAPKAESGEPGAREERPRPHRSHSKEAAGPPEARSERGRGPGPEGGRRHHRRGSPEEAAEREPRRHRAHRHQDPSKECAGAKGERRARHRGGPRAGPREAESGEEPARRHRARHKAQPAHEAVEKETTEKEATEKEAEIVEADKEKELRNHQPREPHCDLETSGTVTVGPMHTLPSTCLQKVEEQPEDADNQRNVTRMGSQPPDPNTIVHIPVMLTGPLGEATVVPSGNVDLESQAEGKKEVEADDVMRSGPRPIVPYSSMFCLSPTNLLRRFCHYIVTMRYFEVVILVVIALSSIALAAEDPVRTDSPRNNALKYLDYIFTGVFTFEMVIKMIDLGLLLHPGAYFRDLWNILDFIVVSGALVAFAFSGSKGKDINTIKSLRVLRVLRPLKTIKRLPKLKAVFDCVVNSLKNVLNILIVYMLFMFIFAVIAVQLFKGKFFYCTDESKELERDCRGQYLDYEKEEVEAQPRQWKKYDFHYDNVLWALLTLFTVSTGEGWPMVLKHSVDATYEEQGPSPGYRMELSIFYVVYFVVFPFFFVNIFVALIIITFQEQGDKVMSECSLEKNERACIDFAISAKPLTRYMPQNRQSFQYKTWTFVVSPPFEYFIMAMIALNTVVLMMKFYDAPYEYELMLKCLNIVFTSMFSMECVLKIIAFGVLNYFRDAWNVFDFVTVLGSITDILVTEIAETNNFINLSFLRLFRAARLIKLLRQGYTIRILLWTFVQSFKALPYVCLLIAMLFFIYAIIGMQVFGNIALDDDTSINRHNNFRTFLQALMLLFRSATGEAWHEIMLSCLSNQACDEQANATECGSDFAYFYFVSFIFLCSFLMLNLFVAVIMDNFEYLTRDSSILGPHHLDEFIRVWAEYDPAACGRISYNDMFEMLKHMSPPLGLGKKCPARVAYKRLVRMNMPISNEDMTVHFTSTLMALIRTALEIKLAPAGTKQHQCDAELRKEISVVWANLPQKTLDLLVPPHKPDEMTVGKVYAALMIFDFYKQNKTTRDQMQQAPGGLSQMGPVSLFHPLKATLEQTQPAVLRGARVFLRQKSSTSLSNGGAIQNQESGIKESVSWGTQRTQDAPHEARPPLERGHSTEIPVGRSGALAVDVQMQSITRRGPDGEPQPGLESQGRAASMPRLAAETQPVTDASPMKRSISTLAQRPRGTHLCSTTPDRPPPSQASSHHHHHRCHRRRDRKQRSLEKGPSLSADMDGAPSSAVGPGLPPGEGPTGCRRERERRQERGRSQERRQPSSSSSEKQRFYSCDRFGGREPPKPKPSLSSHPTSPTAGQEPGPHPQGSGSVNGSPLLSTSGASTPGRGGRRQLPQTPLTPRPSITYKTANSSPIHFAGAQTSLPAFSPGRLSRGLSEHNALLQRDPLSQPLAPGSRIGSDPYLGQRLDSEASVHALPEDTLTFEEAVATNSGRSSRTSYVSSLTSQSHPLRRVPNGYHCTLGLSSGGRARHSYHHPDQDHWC
# assay: disruptors of CaV2.2 binding to Mint1 – biochemical, HTRF (AID 2073)
# assay-context: HTRF protein-protein interaction, Mint1-CaV2.2; at 20 µM; hits give high values
In all, about 290,000 compounds went through this assay and about 570 (0.2%) were called active. About 1% were inconclusive and are not listed. The sample holds actives, similar compounds and a random draw of the others, so the mix is not that of the screen.
Below is a list of entries, each paired with its recorded inhibition value.

In [3]: df
Out[3]:
                                   compound                               target_desc             value
0  CCCCCC(=O)N(O)C1CC(=O)N(c2ccccc2)C1=O (stereo unspecified)  Voltage-dependent N-type calcium channel subunit alpha-1B (Homo sapiens) (UniProt Q00975)  44.4% (inactive)
1  Cc1ccccc1NC1=C(Cl)C(=O)OC1NC(=O)c1ccccc1 (stereo unspecified)  Voltage-dependent N-type calcium channel subunit alpha-1B (Homo sapiens) (UniProt Q00975)  -0.5% (inactive)
2  COc1cc(/C=C(\C#N)c2nc(-c3cc4ccccc4oc3=O)cs2)ccc1O  Voltage-dependent N-type calcium channel subunit alpha-1B (Homo sapiens) (UniProt Q00975)  23.3% (inactive)
3  CCNC(=O)NC(=O)COC(=O)C1CSC2(C)CCC(=O)N12 (stereo unspecified)  Voltage-dependent N-type calcium channel subunit alpha-1B (Homo sapiens) (UniProt Q00975)   3.1% (inactive)
4       COc1ccc(OC)c(Nc2nc(=O)c3cccnc3s2)c1  Voltage-dependent N-type calcium channel subunit alpha-1B (Homo sapiens) (UniProt Q00975)    81.8% (active)

Problem: Short answer please: inhibition, Voltage-dependent N-type calcium channel subunit alpha-1B (Homo sapiens) (UniProt Q00975), entry CCCCN(C)C(=O)c1c[nH]c2ccc(S(=O)(=O)N3CCOCC3)cc2c1=O
Result: 24.6% (inactive)

Problem: Short answer please: inhibition, Voltage-dependent N-type calcium channel subunit alpha-1B (Homo sapiens) (UniProt Q00975), entry Cc1ccc(Nc2nc(=O)c3cccnc3s2)cc1
Result: 2.2% (inactive)

Problem: Short answer please: inhibition, Voltage-dependent N-type calcium channel subunit alpha-1B (Homo sapiens) (UniProt Q00975), entry O=C(O)CC(C(=O)O)N1C(=O)/C(=C/C=C/c2ccco2)SC1=S (stereo unspecified)
Result: 27.4% (inactive)

Problem: Short answer please: inhibition, Voltage-dependent N-type calcium channel subunit alpha-1B (Homo sapiens) (UniProt Q00975), entry COc1cc(/C=C(/C#N)c2nc(-c3cc4ccccc4oc3=O)cs2)cc([N+](=O)[O-])c1O
Result: 80.7% (active)

Problem: Short answer please: inhibition, Voltage-dependent N-type calcium channel subunit alpha-1B (Homo sapiens) (UniProt Q00975), entry Cc1ccc(Nc2nc(=O)c3cccnc3s2)c(Br)c1
Result: -13% (inactive)

Problem: Short answer please: inhibition, Voltage-dependent N-type calcium channel subunit alpha-1B (Homo sapiens) (UniProt Q00975), entry CC(C(=O)O)N1C(=O)/C(=C/C=C/c2ccco2)SC1=S (stereo unspecified)
Result: 77.7% (active)
